- tested-system: ATP-dependent translocase ABCB1 (Homo sapiens, UniProt P08183)
- Sequence (P08183 whole entry): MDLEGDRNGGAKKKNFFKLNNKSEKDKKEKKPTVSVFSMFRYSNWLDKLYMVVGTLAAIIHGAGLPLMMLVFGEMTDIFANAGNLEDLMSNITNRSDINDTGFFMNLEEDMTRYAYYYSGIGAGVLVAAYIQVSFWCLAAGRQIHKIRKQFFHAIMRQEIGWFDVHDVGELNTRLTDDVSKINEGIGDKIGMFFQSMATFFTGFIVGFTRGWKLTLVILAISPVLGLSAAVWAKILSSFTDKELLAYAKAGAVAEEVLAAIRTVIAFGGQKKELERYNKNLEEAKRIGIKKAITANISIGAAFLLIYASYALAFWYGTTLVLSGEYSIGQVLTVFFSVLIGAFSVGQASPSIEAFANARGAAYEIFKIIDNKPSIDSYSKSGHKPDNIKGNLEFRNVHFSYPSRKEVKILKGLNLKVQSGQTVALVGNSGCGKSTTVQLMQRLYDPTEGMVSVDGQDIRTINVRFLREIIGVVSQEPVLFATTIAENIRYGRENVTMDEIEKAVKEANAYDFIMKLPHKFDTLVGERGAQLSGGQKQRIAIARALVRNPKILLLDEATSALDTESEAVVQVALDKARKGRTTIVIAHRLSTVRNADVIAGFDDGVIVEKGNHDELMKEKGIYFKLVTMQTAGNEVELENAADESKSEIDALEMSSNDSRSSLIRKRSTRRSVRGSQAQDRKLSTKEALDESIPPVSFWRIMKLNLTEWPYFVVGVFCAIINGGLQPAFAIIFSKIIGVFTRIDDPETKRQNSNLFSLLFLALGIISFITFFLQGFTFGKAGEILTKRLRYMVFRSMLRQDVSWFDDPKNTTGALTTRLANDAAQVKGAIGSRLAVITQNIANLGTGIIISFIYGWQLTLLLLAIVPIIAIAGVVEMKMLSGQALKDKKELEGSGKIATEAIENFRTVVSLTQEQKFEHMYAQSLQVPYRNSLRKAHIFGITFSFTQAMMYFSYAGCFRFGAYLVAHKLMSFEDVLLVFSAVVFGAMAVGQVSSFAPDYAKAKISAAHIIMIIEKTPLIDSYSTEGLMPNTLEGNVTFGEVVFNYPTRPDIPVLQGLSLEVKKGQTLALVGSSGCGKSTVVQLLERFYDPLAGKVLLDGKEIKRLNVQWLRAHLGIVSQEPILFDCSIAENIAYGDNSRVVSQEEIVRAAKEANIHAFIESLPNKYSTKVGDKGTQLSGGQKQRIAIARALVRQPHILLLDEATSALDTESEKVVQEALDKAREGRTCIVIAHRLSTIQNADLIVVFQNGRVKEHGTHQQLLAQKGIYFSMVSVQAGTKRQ
- measurement-protocol: Inhibition of MDR1-mediated efflux-pump activity in mouse L5178Y cells expressing human MDR1 assessed as mean fluorescence intensity at 20 uM preincubated for 10 mins followed by rhodamine-123 addition measured after 20 mins by flow cytometry (reference value: 7.1 to 18.6)
- Assay type: cell-based
measured-property: Flu intensity
Just the number, please, no unit after it.

Below: 2 compounds and their reported Flu intensity.
• CC(C)=C[C@H](O)C[C@@H](C)[C@H]1CC[C@@]2(C)[C@@H]3[C@@H](O[C@H]4O[C@@H](CO)[C@H](O)[C@H](O)[C@@H]4O)C=C4[C@@H](CC[C@H](O)C4(C)C)[C@]3(C)CC[C@]12C = 487.1
• CO[C@H]1C=C2[C@@H](CC[C@H](O)C2(C)C)[C@]2(C)CC[C@]3(C)[C@@H]([C@H](C)C[C@H](C=C(C)C)O[C@@H]4O[C@H](CO)[C@@H](O)[C@H](O)[C@H]4O)CC[C@@]3(C)[C@H]12 = 643.1

Asked: Form field: Flu intensity recorded for CO[C@H]1C=C2[C@@H](CC[C@H](O)[C@]2(C)CO)[C@]2(C)CC[C@]3(C)[C@@H]([C@H](C)C[C@@H](O)C=C(C)C)CC[C@@]3(C)[C@H]12 [BALSAMINOL B] with ATP-dependent translocase ABCB1 (Homo sapiens, UniProt P08183) (enter value)
Given back: 899.1

---

- tested-system: ATP-dependent translocase ABCB1 (Homo sapiens, UniProt P08183)
- measurement-protocol: Inhibition of MDR1-mediated efflux-pump activity in mouse L5178Y cells expressing human MDR1 assessed as fluorescence activity ratio at 2 uM preincubated for 10 mins followed by rhodamine-123 addition measured after 20 mins by flow cytometry
- Format: cell-based
# Ratio per record follows

Asked: Could you tell me which Ratio is on file for CO[C@H]1C=C2[C@@H](CC[C@H](O)C2(C)C)[C@]2(C)C[C@@H](O)[C@]3(C)[C@@H]([C@H](C)C/C=C/C(C)(C)O)CC[C@@]3(C)[C@H]12 ?
Given back: 2.7

Asked: Could you tell me which Ratio is on file for CO[C@H]1C=C2[C@@H](CC[C@H](O)C2(C)C)[C@]2(C)CC[C@]3(C)[C@@H]([C@H](C)C[C@H](C=C(C)C)O[C@@H]4O[C@H](CO)[C@@H](O)[C@H](O)[C@H]4O)CC[C@@]3(C)[C@H]12 ?
Given back: 1

Asked: Could you tell me which Ratio is on file for CO[C@H]1C=C2[C@@H](CC[C@H](O)[C@]2(C)CO)[C@]2(C)CC[C@]3(C)[C@@H]([C@H](C)C[C@@H](O)C=C(C)C)CC[C@@]3(C)[C@H]12 [BALSAMINOL B] ?
Given back: 7.3

Asked: Could you tell me which Ratio is on file for CC(C)=C[C@H](O)C[C@@H](C)[C@H]1CC[C@@]2(C)[C@@H]3C(O[C@H]4O[C@@H](CO)[C@H](O)[C@@H](O)[C@@H]4O)C=C4[C@@H](CC[C@H](O)C4(C)C)[C@]3(C)CC[C@]12C (stereo partly drawn) ?
Given back: 1

Asked: Could you tell me which Ratio is on file for CC(C)=CC(=O)C[C@@H](C)[C@H]1CC[C@@]2(C)[C@@H]3C(=O)C=C4[C@@H](CC[C@H](O)[C@]4(C)CO)[C@]3(C)CC[C@]12C [BALSAMINOL C] ?
Given back: 2.9

Asked: Could you tell me which Ratio is on file for C[C@H](C/C=C/C(C)(C)O)[C@H]1CC[C@@]2(C)[C@@H]3[C@@H](O)C=C4[C@@H](CC[C@H](O)C4(C)C)[C@]3(C)CC[C@]12C ?
Given back: 7.1

Asked: Could you tell me which Ratio is on file for CC(C)=C[C@H](O)C[C@@H](C)[C@H]1CC[C@@]2(C)[C@@H]3C=C[C@@]45OC[C@]3(CC[C@]12C)[C@@H]4CC[C@H](O)C5(C)C [KARAVILAGENIN E] ?
Given back: 3.8

Asked: Could you tell me which Ratio is on file for CO[C@H]1C=C2[C@@H](CC[C@H](OC(=O)/C=C/c3ccccc3)C2(C)C)[C@]2(C)CC[C@]3(C)[C@@H]([C@H](C)C[C@H](C=C(C)C)OC(=O)/C=C/c4ccccc4)CC[C@@]3(C)[C@H]12 [KARAVOATE P] ?
Given back: 1

Asked: Could you tell me which Ratio is on file for CC(C)=C[C@H](O)C[C@@H](C)[C@H]1CC[C@@]2(C)[C@@H]3[C@@H](O)C=C4[C@@H](CC[C@H](O)C4(C)C)[C@]3(C)CC[C@]12C [BALSAMINOL F] ?
Given back: 2.6

Asked: Could you tell me which Ratio is on file for CO[C@H]1C=C2[C@@H](CC[C@H](O)C2(C)C)[C@]2(C)CC[C@]3(C)[C@@H]([C@H](C)C[C@H](C=C(C)C)OC(=O)c4ccc(Cl)cc4)CC[C@@]3(C)[C@H]12 [KARAVOATE K] ?
Given back: 1.4

Asked: Could you tell me which Ratio is on file for CO[C@H]1C=C2[C@@H](CC[C@H](OC(=O)CCC(=O)O)C2(C)C)[C@]2(C)CC[C@]3(C)[C@@H]([C@H](C)C[C@H](C=C(C)C)OC(=O)CCC(=O)O)CC[C@@]3(C)[C@H]12 ?
Given back: 1.3

Asked: Could you tell me which Ratio is on file for CO[C@H]1C=C2[C@@H](CC[C@H](OC(=O)c3ccccc3)C2(C)C)[C@]2(C)CC[C@]3(C)[C@@H]([C@H](C)C[C@H](C=C(C)C)OC(=O)c4ccccc4)CC[C@@]3(C)[C@H]12 [KARAVOATE H] ?
Given back: 1.2

Asked: Could you tell me which Ratio is on file for CO[C@H]1C=C2[C@@H](CC[C@H](O)C2(C)C)[C@]2(C)C[C@@H](O)[C@]3(C)[C@@H]([C@H](C)C[C@@H](O)C=C(C)C)CC[C@@]3(C)[C@H]12 [CUCURBALSAMINOL C] ?
Given back: 3.1

Asked: Could you tell me which Ratio is on file for CO[C@H]1C=C2[C@@H](CC[C@H](OC(=O)c3ccc([N+](=O)[O-])cc3)C2(C)C)[C@]2(C)CC[C@]3(C)[C@@H]([C@H](C)C[C@H](C=C(C)C)OC(=O)c4ccc([N+](=O)[O-])cc4)CC[C@@]3(C)[C@H]12 [KARAVOATE J] ?
Given back: 1.4

Asked: Could you tell me which Ratio is on file for CC(C)=C[C@@H](C[C@@H](C)[C@H]1CC[C@@]2(C)[C@@H]3[C@@H](OC(=O)c4ccccc4)C=C4[C@@H](CC[C@H](OC(=O)c5ccccc5)C4(C)C)[C@]3(C)CC[C@]12C)OC(=O)c1ccccc1 [TRIBENZOYLBALSAMINOL F] ?
Given back: 1.3

Asked: Could you tell me which Ratio is on file for CC(=O)C[C@@H](C)[C@H]1CC[C@@]2(C)[C@@H]3C(=O)C=C4[C@@H](CC[C@H](O)[C@]4(C)CO)[C@]3(C)CC[C@]12C [BALSAMINOL D] ?
Given back: 1

Asked: Could you tell me which Ratio is on file for CC(=O)O[C@H]1C=C2[C@@H](CC[C@H](OC(C)=O)C2(C)C)[C@]2(C)CC[C@]3(C)[C@@H]([C@H](C)C[C@H](C=C(C)C)OC(C)=O)CC[C@@]3(C)[C@H]12 [TRIACETYLBALSAMINOL F] ?
Given back: 3

Asked: Could you tell me which Ratio is on file for CCCC(=O)O[C@H]1CC[C@@H]2C(=C[C@H](OC)[C@@H]3[C@@]2(C)CC[C@]2(C)[C@@H]([C@H](C)C[C@H](C=C(C)C)OC(=O)CCC)CC[C@@]32C)C1(C)C [KARAVOATE F] ?
Given back: 1.4
